Known remaining activity at 100 µM of a selection of compounds
biological target: E. coli CsgA (Escherichia coli, UniProt P28307); construct: made in house; host or cells: E. coli NEB 3016 slyD::kan, pET11d; assay: In vitro ThioflavinT assay of CsgA aggregation (CsgA ThT Assay); type: biochemical; settings: read-out: CsgA ThT Assay (10 μM CsgA) % Control AUC at 1005 minutes, 100 μM (activity range), CsgA 10 μM, black plates; compound 100 μM; 1005 minutes; class symbol
Sequence (P28307 23-151): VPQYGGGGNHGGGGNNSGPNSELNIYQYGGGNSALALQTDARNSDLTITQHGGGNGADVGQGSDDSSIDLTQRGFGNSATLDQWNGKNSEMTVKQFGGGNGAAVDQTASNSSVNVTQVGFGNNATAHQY

[
  {
    "Compound": "Nc1c(Cc2cccc3ccccc23)c(-c2cccc(C(F)(F)F)c2)c2n(c1=O)C(C(=O)O)CS2 (racemic) [Compound 020]",
    "remaining activity at 100 µM": "< 10%"
  },
  {
    "Compound": "O=C(O)C1CN(CCCCCO)S(=O)(=O)c2c(-c3cccc(C(F)(F)F)c3)c(Cc3cccc4ccccc34)c(NC3CCCC3)c(=O)n21 (stereo not shown)",
    "remaining activity at 100 µM": "11 to 31%"
  },
  {
    "Compound": "CC1(C)Sc2c(-c3cccc(C(F)(F)F)c3)c(Cc3cccc4ccccc34)nc(=O)n2C1C(=O)O (stereo not shown)",
    "remaining activity at 100 µM": "11 to 31%"
  },
  {
    "Compound": "CCc1c(Cc2cccc3ccccc23)c(-c2cccc(C(F)(F)F)c2)c2n(c1=O)C(C(=O)O)CN(CCCO)S2(=O)=O (stereo not shown)",
    "remaining activity at 100 µM": "11 to 31%"
  },
  {
    "Compound": "O=c1cc(Cc2cccc3ccccc23)c(-c2cccc(C(F)(F)F)c2)c2n1C(CO)CS2 (stereo not shown)",
    "remaining activity at 100 µM": "> 60%"
  },
  {
    "Compound": "CN1CC(C(=O)O)n2c(c(-c3cccc(C(F)(F)F)c3)c(Cc3cccc4ccccc34)c(CO)c2=O)S1(=O)=O (stereo not shown)",
    "remaining activity at 100 µM": "> 60%"
  },
  {
    "Compound": "CN1CC(C(=O)O)n2c(c(-c3cccc(C(F)(F)F)c3)c(Cc3cccc4ccccc34)c(NCc3ccccc3)c2=O)S1(=O)=O (stereo not shown)",
    "remaining activity at 100 µM": "> 60%"
  },
  {
    "Compound": "O=C(O)CC1CSc2c(-c3cccc(C(F)(F)F)c3)c(Cc3cccc4ccccc34)cc(=O)n21 (stereo not shown)",
    "remaining activity at 100 µM": "> 60%"
  },
  {
    "Compound": "CCCCN1CC(C(=O)O)n2c(c(-c3cccc(C(F)(F)F)c3)c(Cc3cccc4ccccc34)cc2=O)S1(=O)=O (single isomer, unassigned) [Compound 021a]",
    "remaining activity at 100 µM": "> 60%"
  },
  {
    "Compound": "O=C(O)C1CN(CCCCO)S(=O)(=O)c2c(-c3cccc(C(F)(F)F)c3)c(Cc3cccc4ccccc34)c(NC3CCCC3)c(=O)n21 (stereo not shown)",
    "remaining activity at 100 µM": "11 to 31%"
  },
  {
    "Compound": "Cn1c(=O)c2c(nc(CCCCN3CC(C(=O)O)n4c(c(-c5cccc(C(F)(F)F)c5)c(Cc5cccc6ccccc56)cc4=O)S3(=O)=O)n2C)n(C)c1=O (stereo not shown)",
    "remaining activity at 100 µM": "31 to 60%"
  },
  {
    "Compound": "O=C(O)C1CN(C[C@@H](O)CO)S(=O)(=O)c2c(-c3cccc(C(F)(F)F)c3)c(Cc3cccc4ccccc34)cc(=O)n21 (mixture of isomers) [Compound 065b]",
    "remaining activity at 100 µM": "11 to 31%"
  },
  {
    "Compound": "CCc1c(Cc2cccc3ccccc23)c(-c2cccc(C(F)(F)F)c2)c2n(c1=O)C(C(=O)O)CN(CCCCO)S2(=O)=O (stereo not shown)",
    "remaining activity at 100 µM": "11 to 31%"
  }
]
